# assay notes: Pharmacokinetics test in beagle dogs (capsule by gavage, plasma LC/MS/MS)
# Format: in vivo
# details: dog, po, capsule by gavage, dose 2.5 mg/kg, plasma, read-out: Cmax
measurement kind: Cmax

COc1ncc(-c2ccn3ncc(C#N)c3c2)cc1NS(=O)(=O)c1ccc(F)cc1F: 482 ng/mL

* * *

# assay notes: Pharmacokinetics test in beagle dogs (capsule by gavage, plasma LC/MS/MS)
# Type: in vivo
# details: capsule by gavage, dose 2.5 mg/kg, plasma
Counter-ions that a name gives are not always drawn.
measurement kind: Tmax (min)

COc1ncc(-c2ccn3ncc(C#N)c3c2)cc1NS(=O)(=O)c1ccc(F)cc1F [crystalline form A of mono-lithium salt]: 90
COc1ncc(-c2ccn3ncc(C#N)c3c2)cc1NS(=O)(=O)c1ccc(F)cc1F [crystalline form B of mono-sodium salt]: 35
COc1ncc(-c2ccn3ncc(C#N)c3c2)cc1NS(=O)(=O)c1ccc(F)cc1F [crystalline form A of mono-choline salt]: 64.8
COc1ncc(-c2ccn3ncc(C#N)c3c2)cc1NS(=O)(=O)c1ccc(F)cc1F: 40

Where these numbers come from: patent US11179376B2
